Tested on: Staphylococcus aureus
Test: Antibacterial activity against methicillin-resistant Staphylococcus aureus 156 assessed as bacterial growth inhibition
Type: functional
Entries and their measured MIC follow.
REPORTED_METRIC: MIC

{"MOLECULE": "Oc1c(Br)c(Cl)c(Br)c2nc3c(Cl)cc(Cl)cc3nc12", "REPORTED_METRIC": "MIC", "OBS_VALUE": "0.47 µM"}
{"MOLECULE": "Oc1c(Br)cc(Br)c2nc3ccccc3nc12", "REPORTED_METRIC": "MIC", "OBS_VALUE": "1.25 µM"}
{"MOLECULE": "CCSc1c(Br)c(O)c2nc3cccc(C)c3nc2c1Br", "REPORTED_METRIC": "MIC", "OBS_VALUE": "0.31 µM"}
{"MOLECULE": "Cc1cccc2nc3c(O)c(Br)c(Cl)c(Br)c3nc12", "REPORTED_METRIC": "MIC", "OBS_VALUE": "0.06 µM"}
{"MOLECULE": "COc1cccc(OC)c1C(=O)N[C@@H]1C(=O)N2[C@@H]1SC(C)(C)[C@@H]2C(=O)O [METHICILLIN]", "REPORTED_METRIC": "MIC", "OBS_VALUE": "≥ 37.5 µM"}
